measurement.description: RPMI8226 myeloma cell viability, profiling panel, resazurin fluorescence, basal, 24 h, PK04 Diversity Set (AID 1180);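 note: RPMI8826 multiple myeloma cell line at 5000 cells per well; test concentration not given here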
cond: higher = more signal
Would you mind labelling by z-score? At or over 0.5 is yes, under is no.

Exercise: Hi team, for CCOC(=O)C[C@H]1[C@H](OC(=O)c2ccc(-c3ccccc3)cc2)[C@@H](NC(=O)c2ccccc2)c2cc(OCCCO)ccc2N1C(=O)c1ccccc1 , is the recorded z-score at or above 0.5?
Solution: yes

Exercise: Hi team, for O=C1c2ccccc2C(=O)c2cc([C@H]3Oc4ccccc4S(=O)(=O)N4CCC[C@@H]34)ccc21 , is the recorded z-score at or above 0.5?
Solution: no

Exercise: Hi team, for CC(C)CNC(=O)[C@@H]1c2ccccc2C(=O)N(Cc2ccc(OC(F)(F)F)cc2)[C@H]1c1ccc(CO)cc1 , is the recorded z-score at or above 0.5?
Solution: yes

Exercise: Hi team, for CCOC(=O)C[C@H]1[C@H](OC(=O)c2ccc(C(=O)c3ccccc3)cc2)[C@@H](NC(=O)Cc2ccc(OC)cc2)c2cc(OCCCO)ccc2N1C(=O)Cc1ccc(OC)cc1 , is the recorded z-score at or above 0.5?
Solution: yes

Exercise: Hi team, for CC(C)C[C@@H]1NC(=O)[C@H]2C[C@@H](C(=O)NCCCC[N+](C)(C)C)[C@@H](c3cccc(OCCO)c3)N2C1=O , is the recorded z-score at or above 0.5?
Solution: no

Exercise: Hi team, for O=C1O[C@@H](c2ccccc2)[C@@H](c2ccccc2)N2[C@@H](c3ccc(OCCO)cc3)[C@]3(C(=O)Nc4ccc(C#CC5(O)CCCCCC5)cc43)[C@@H](C(=O)NC[C@H](O)c3ccccc3)[C@H]12 , is the recorded z-score at or above 0.5?
Solution: yes

====

measurement.description: A549 lung cancer cell viability effects, profiling panel, resazurin fluorescence, 24 h, PK04 Diversity Set (AID 1171); note: test concentration not given here
cond: higher = more signal, called active from +8 up or from −8 down
Please provide measured z-score for the entries that follow.
Lab note: record just the number, no unit beside it.

Exercise: // fetch z-score given entry C=C(C1=CCN(S(=O)(=O)c2ccc(C)cc2)C1)[C@@H](OC(C)=O)[C@@H]1CCCN1S(=O)(=O)c1ccccc1[N+](=O)[O-]
Solution: 0.0974

Exercise: // fetch z-score given entry COCCOC(=O)N1C(=O)[C@@]2(c3cc(C#CCNC(N)=O)ccc31)[C@H](C(=O)NC[C@H](O)c1ccccc1)[C@H]1C(=O)O[C@H](c3ccccc3)[C@H](c3ccccc3)N1[C@@H]2c1ccc(O)cc1
Solution: 0.0618

Exercise: // fetch z-score given entry C[N+](C)(C)CCCC[C@@H]1NC(=O)[C@@H]2C[C@H](C(=O)NCCCCCNC(=O)CS)[C@H](c3ccc(O)cc3)N2C1=O
Solution: 1.09

Exercise: // fetch z-score given entry CCOC(=O)C[C@H]1[C@H](OC(=O)c2ccc(-c3ccccc3)cc2)[C@@H](NC(=O)C2CCCCC2)c2cc(OCCCO)ccc2N1C(=O)c1ccc2ccccc2n1
Solution: 1.02

Exercise: // fetch z-score given entry O=C(O)[C@H]1C[C@H]2C(=O)N[C@@H](Cc3ccccc3)C(=O)N2[C@H]1c1ccc(O)cc1
Solution: 0.715

Exercise: // fetch z-score given entry CC(C)C[C@@H]1NC(=O)[C@@]23C(=O)N[C@@H](Cc4ccccc4)C2[C@H](C)[C@@]2(C)O[C@H]2C3/C=C/CC/C=C/CNC(=O)[C@@H](C)NC1=O (stereo partly specified)
Solution: -0.613

Just for reference, PubChem BioAssay is where these values come from.
